Test: Cytotoxicity against human articular chondrocytes assessed as metabolic activity at 10 uM by WST-1 assay
Details: read-out: Activity
In this section we review reported viability at 10 µM values for a set of compounds.
parameter: viability at 10 µM (%)

COc1ccc(OP(=O)(O[C@H]2[C@H](O)[C@@H](CO)O[C@H](O)[C@@H]2NC(C)=O)N2CCC[C@H]2C(=O)OCc2ccccc2)cc1 (some centres not stated) | 115
N[C@H]1C(O)O[C@H](CO)[C@@H](O)[C@@H]1O (some centres not stated) | 107
COc1ccc(OP(=O)(O[C@H]2[C@H](O)[C@@H](CO)O[C@H](O)[C@@H]2NC(C)=O)N2CCC[C@H]2C(=O)OC(C)C)cc1 (some centres not stated) | 79.4
CCC(C)OC(=O)[C@@H]1CCCN1P(=O)(Oc1ccc(OC)cc1)O[C@H]1[C@H](O)[C@@H](CO)O[C@H](O)[C@@H]1NC(C)=O (some centres not stated) | 53.9
CCOC(=O)[C@@H]1CCCN1P(=O)(Oc1ccc(OC)cc1)O[C@H]1[C@H](O)[C@@H](NC(C)=O)[C@H](O)O[C@@H]1CO (some centres not stated) | 107
CCOC(=O)[C@@H]1CCCN1P(=O)(Oc1ccc(OC)cc1)O[C@H]1[C@H](O)[C@@H](CO)O[C@H](O)[C@@H]1NC(C)=O (some centres not stated) | 66.4
CCCCOC(=O)[C@@H]1CCCN1P(=O)(Oc1ccc(OC)cc1)O[C@H]1[C@H](O)[C@@H](CO)O[C@H](O)[C@@H]1NC(C)=O (some centres not stated) | 87.1
